test: molar heat capacity at constant pressure; conditions: 323 K; 101.33 kPa; Liquid; Small sample (50 mg) DSC
measure: molar heat capacity at constant pressure (J/K/mol)
# number only, unit J/K/mol dropped from output

Use the examples below as a reference point.
[[record]]
molecule = "CCCCCC[n+]1ccn(C)c1.O=S(=O)([N-]S(=O)(=O)C(F)(F)F)C(F)(F)F"
unit_abbrev = "J/K/mol"
observed_value = 675

[[record]]
molecule = "CCOS(=O)(=O)[O-].CCn1cc[n+](C)c1 [1-ethyl-3-methylimidazolium ethyl sulfate]"
unit_abbrev = "J/K/mol"
observed_value = 406

[[record]]
molecule = "CCn1cc[n+](C)c1.O=S(=O)([N-]S(=O)(=O)C(F)(F)F)C(F)(F)F"
unit_abbrev = "J/K/mol"
observed_value = 538

[[record]]
molecule = "CCCCn1cc[n+](C)c1.O=S(=O)([O-])C(F)(F)F [1-butyl-3-methylimidazolium trifluoromethanesulfonate]"
unit_abbrev = "J/K/mol"
observed_value = 473

[[record]]
molecule = "CCCCCCCCn1cc[n+](C)c1.O=S(=O)([N-]S(=O)(=O)C(F)(F)F)C(F)(F)F"
unit_abbrev = "J/K/mol"
observed_value = 773


Turning now to a further record.
Param item = CCCC[n+]1ccn(C)c1.O=S(=O)([N-]S(=O)(=O)C(F)(F)F)C(F)(F)F ; retrieve measured molar heat capacity at constant pressure.
621

----------
assay: molar heat capacity at constant pressure; details: 303 K; 101.33 kPa; Liquid; Small sample (50 mg) DSC
Binning rule for recorded molar heat capacity at constant pressure: low = under 500 J/K/mol, moderate = from 500 J/K/mol up to 700 J/K/mol, high = 700 J/K/mol and over

Some solved entries appear below for comparison.
[[record]]
compound = "CCCCCC[n+]1ccn(C)c1.O=S(=O)([N-]S(=O)(=O)C(F)(F)F)C(F)(F)F"
label_value = "moderate"

[[record]]
compound = "CCCCCCCCn1cc[n+](C)c1.O=S(=O)([N-]S(=O)(=O)C(F)(F)F)C(F)(F)F"
label_value = "high"

[[record]]
compound = "CCOS(=O)(=O)[O-].CCn1cc[n+](C)c1 [1-ethyl-3-methylimidazolium ethyl sulfate]"
label_value = "low"

[[record]]
compound = "CCCC[N+]1(C)CCCC1.O=S(=O)([N-]S(=O)(=O)C(F)(F)F)C(F)(F)F"
label_value = "moderate"

[[record]]
compound = "CCn1cc[n+](C)c1.O=S(=O)([N-]S(=O)(=O)C(F)(F)F)C(F)(F)F"
label_value = "moderate"


Next up:
For this compound, which bin applies? CCCCn1cc[n+](C)c1.O=S(=O)([O-])C(F)(F)F [1-butyl-3-methylimidazolium trifluoromethanesulfonate]
low

----------
Listed molecules paired with reported molar heat capacity at constant pressure
assay: molar heat capacity at constant pressure; conditions: 338 K; 101.33 kPa; Liquid; Small sample (50 mg) DSC
Return type: number; implicit unit J/K/mol.

Some solved entries appear below for comparison.
[[record]]
molecule = "CCCC[N+]1(C)CCCC1.O=S(=O)([N-]S(=O)(=O)C(F)(F)F)C(F)(F)F"
measure = "molar heat capacity at constant pressure"
unit_abbrev = "J/K/mol"
observed_value = 661

[[record]]
molecule = "CCn1cc[n+](C)c1.O=S(=O)([N-]S(=O)(=O)C(F)(F)F)C(F)(F)F"
measure = "molar heat capacity at constant pressure"
unit_abbrev = "J/K/mol"
observed_value = 545

[[record]]
molecule = "CCCCCCCCCCCCCC[P+](CCCCCC)(CCCCCC)CCCCCC.O=S(=O)([N-]S(=O)(=O)C(F)(F)F)C(F)(F)F"
measure = "molar heat capacity at constant pressure"
unit_abbrev = "J/K/mol"
observed_value = 1397


// lookup molar heat capacity at constant pressure for CCCCn1cc[n+](C)c1.O=S(=O)([O-])C(F)(F)F [1-butyl-3-methylimidazolium trifluoromethanesulfonate]
486

Same question, CCCCCC[n+]1ccn(C)c1.O=S(=O)([N-]S(=O)(=O)C(F)(F)F)C(F)(F)F this time
680

Next entry: CCCC[n+]1ccn(C)c1.O=S(=O)([N-]S(=O)(=O)C(F)(F)F)C(F)(F)F
631

Ok, now CCOS(=O)(=O)[O-].CCn1cc[n+](C)c1 [1-ethyl-3-methylimidazolium ethyl sulfate]
420

// next record CCCCCCCCn1cc[n+](C)c1.O=S(=O)([N-]S(=O)(=O)C(F)(F)F)C(F)(F)F
795

Again, but for CCCC[N+]1(C)CCCC1.FC(F)(F)C(F)(F)[P-](F)(F)(F)(C(F)(F)C(F)(F)F)C(F)(F)C(F)(F)F
799

----------
test: molar heat capacity at constant pressure; conditions: 313 K; 101.33 kPa; Liquid; Small sample (50 mg) DSC
± gives the expanded uncertainty stated by the source.
Measured molar heat capacity at constant pressure by item
Be sure to follow the number with its unit.

[[record]]
compound = "CCOS(=O)(=O)[O-].CCn1cc[n+](C)c1 [1-ethyl-3-methylimidazolium ethyl sulfate]"
observed_value = "398 ± 21 J/K/mol"

[[record]]
compound = "CCCCCCCCCCCCCC[P+](CCCCCC)(CCCCCC)CCCCCC.O=S(=O)([N-]S(=O)(=O)C(F)(F)F)C(F)(F)F"
observed_value = "1379 ± 72 J/K/mol"

[[record]]
compound = "CCCC[N+]1(C)CCCC1.FC(F)(F)C(F)(F)[P-](F)(F)(F)(C(F)(F)C(F)(F)F)C(F)(F)C(F)(F)F"
observed_value = "781 ± 41 J/K/mol"

[[record]]
compound = "CCCCCC[n+]1ccn(C)c1.O=S(=O)([N-]S(=O)(=O)C(F)(F)F)C(F)(F)F"
observed_value = "671 ± 35 J/K/mol"


Moving on to the next compound.
What does the data say about its molar heat capacity at constant pressure? Entry: CCCCCCCCn1cc[n+](C)c1.O=S(=O)([N-]S(=O)(=O)C(F)(F)F)C(F)(F)F
756 ± 39 J/K/mol

----------
experiment: molar heat capacity at constant pressure; settings: 328 K; 101.33 kPa; Liquid; Small sample (50 mg) DSC
Collected molar heat capacity at constant pressure values appear next to each entry.
All answers are understood in J/K/mol, so give the number only.

[[record]]
compound = "CCCC[N+]1(C)CCCC1.O=S(=O)([N-]S(=O)(=O)C(F)(F)F)C(F)(F)F"
observed_value = 656

[[record]]
compound = "CCCC[n+]1ccn(C)c1.O=S(=O)([N-]S(=O)(=O)C(F)(F)F)C(F)(F)F"
observed_value = 624

[[record]]
compound = "CCCCCCCCn1cc[n+](C)c1.O=S(=O)([N-]S(=O)(=O)C(F)(F)F)C(F)(F)F"
observed_value = 779

[[record]]
compound = "CCCC[N+]1(C)CCCC1.FC(F)(F)C(F)(F)[P-](F)(F)(F)(C(F)(F)C(F)(F)F)C(F)(F)C(F)(F)F"
observed_value = 791

[[record]]
compound = "CCCCn1cc[n+](C)c1.O=S(=O)([O-])C(F)(F)F [1-butyl-3-methylimidazolium trifluoromethanesulfonate]"
observed_value = 477

[[record]]
compound = "CCCCCC[n+]1ccn(C)c1.O=S(=O)([N-]S(=O)(=O)C(F)(F)F)C(F)(F)F"
observed_value = 676


Record request: molar heat capacity at constant pressure value, item CCCCCCCCCCCCCC[P+](CCCCCC)(CCCCCC)CCCCCC.O=S(=O)([N-]S(=O)(=O)C(F)(F)F)C(F)(F)F
1389

Note, next up: CCn1cc[n+](C)c1.O=S(=O)([N-]S(=O)(=O)C(F)(F)F)C(F)(F)F
539

And then CCOS(=O)(=O)[O-].CCn1cc[n+](C)c1 [1-ethyl-3-methylimidazolium ethyl sulfate] , what is it?
410

----------
assay: molar heat capacity at constant pressure; conditions: 308 K; 101.33 kPa; Liquid; Small sample (50 mg) DSC
measure: molar heat capacity at constant pressure (J/K/mol)
Report as a plain number; the unit J/K/mol is understood.

Completed entries (count: 3):
[[record]]
compound = "CCCCCCCCn1cc[n+](C)c1.O=S(=O)([N-]S(=O)(=O)C(F)(F)F)C(F)(F)F"
measure = "molar heat capacity at constant pressure"
unit_abbrev = "J/K/mol"
observed_value = 748

[[record]]
compound = "CCCCCC[n+]1ccn(C)c1.O=S(=O)([N-]S(=O)(=O)C(F)(F)F)C(F)(F)F"
measure = "molar heat capacity at constant pressure"
unit_abbrev = "J/K/mol"
observed_value = 668

[[record]]
compound = "CCCC[N+]1(C)CCCC1.FC(F)(F)C(F)(F)[P-](F)(F)(F)(C(F)(F)C(F)(F)F)C(F)(F)C(F)(F)F"
measure = "molar heat capacity at constant pressure"
unit_abbrev = "J/K/mol"
observed_value = 776


# input compound: CCn1cc[n+](C)c1.O=S(=O)([N-]S(=O)(=O)C(F)(F)F)C(F)(F)F ; wanted: its molar heat capacity at constant pressure
529

Now try CCCC[n+]1ccn(C)c1.O=S(=O)([N-]S(=O)(=O)C(F)(F)F)C(F)(F)F .
607

// same read-out, input: CCCC[N+]1(C)CCCC1.O=S(=O)([N-]S(=O)(=O)C(F)(F)F)C(F)(F)F
639

Now give it for CCOS(=O)(=O)[O-].CCn1cc[n+](C)c1 [1-ethyl-3-methylimidazolium ethyl sulfate] too.
394

Same for CCCCCCCCCCCCCC[P+](CCCCCC)(CCCCCC)CCCCCC.O=S(=O)([N-]S(=O)(=O)C(F)(F)F)C(F)(F)F
1372

Input CCCCn1cc[n+](C)c1.O=S(=O)([O-])C(F)(F)F [1-butyl-3-methylimidazolium trifluoromethanesulfonate]
461
